# TARGET_OR_SYSTEM: hmGluR1 receptor (Homo sapiens, UniProt Q13255)
# Construct: expressed in transfected cells
# Sequence (Q13255 19-1194): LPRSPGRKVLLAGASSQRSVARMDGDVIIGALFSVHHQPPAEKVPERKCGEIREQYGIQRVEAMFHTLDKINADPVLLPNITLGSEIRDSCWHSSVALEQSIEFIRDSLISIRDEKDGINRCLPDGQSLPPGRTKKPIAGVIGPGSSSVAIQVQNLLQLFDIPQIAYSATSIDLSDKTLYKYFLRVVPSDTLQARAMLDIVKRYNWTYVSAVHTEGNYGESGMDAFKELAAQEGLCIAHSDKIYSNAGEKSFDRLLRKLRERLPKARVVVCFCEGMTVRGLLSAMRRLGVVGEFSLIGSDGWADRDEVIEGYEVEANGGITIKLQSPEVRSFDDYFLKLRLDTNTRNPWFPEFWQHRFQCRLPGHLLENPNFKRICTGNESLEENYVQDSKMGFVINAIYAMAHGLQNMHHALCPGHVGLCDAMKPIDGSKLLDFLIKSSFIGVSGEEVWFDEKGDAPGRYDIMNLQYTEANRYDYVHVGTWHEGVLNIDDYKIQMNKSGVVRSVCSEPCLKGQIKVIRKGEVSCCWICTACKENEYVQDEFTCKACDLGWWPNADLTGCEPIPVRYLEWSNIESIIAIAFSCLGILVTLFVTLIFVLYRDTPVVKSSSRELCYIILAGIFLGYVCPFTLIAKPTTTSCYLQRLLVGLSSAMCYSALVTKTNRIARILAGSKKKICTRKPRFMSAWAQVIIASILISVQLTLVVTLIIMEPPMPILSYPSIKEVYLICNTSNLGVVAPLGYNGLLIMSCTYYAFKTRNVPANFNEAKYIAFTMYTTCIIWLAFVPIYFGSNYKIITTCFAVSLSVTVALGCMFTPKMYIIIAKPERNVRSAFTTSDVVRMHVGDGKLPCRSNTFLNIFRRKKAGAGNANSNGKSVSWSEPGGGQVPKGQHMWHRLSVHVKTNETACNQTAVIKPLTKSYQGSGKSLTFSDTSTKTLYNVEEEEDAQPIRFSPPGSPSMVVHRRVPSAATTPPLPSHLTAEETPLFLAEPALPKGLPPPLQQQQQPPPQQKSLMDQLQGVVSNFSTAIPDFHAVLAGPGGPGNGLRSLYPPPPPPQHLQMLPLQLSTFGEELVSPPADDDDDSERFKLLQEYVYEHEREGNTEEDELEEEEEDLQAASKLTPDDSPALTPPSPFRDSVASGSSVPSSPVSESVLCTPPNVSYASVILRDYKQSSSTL
# EXPERIMENT: IC50 determination: intracellular calcium mobilization (FLIPR) upon Quisqualate stimulation in CHO cells stably expressing hmGluR1
# Type: cell-based
# MEASUREMENT_CONDITIONS: against Quisqualate 1 μM (EC80), class symbols, read-out: mGIuR 1 IC50
pIC50: −log10 of the molar value.
MEASURE_NAME: pIC50

                                 molecule  measure_name  value_measured
0  COc1cc(O)nc2sc3c(=O)n(C4CCCCC4)cnc3c12         pIC50          < 6.00

## Input Please report the recorded pIC50 for CN(C)c1cccc2sc3c(=O)n(-c4ccc(Cl)cc4)cnc3c12 [103A] .
## Output 6.82 to 7.30

## Input Please report the recorded pIC50 for "CN(C)c1ccnc2sc3c(=O)n(-c4ccc(OC(F)F)cc4)cnc3c12" .
## Output > 7.30

## Input Please report the recorded pIC50 for Cc1ccc(-n2cnc3c(sc4nc(N5CCNCC5)cc(N(C)C)c43)c2=O)cc1 [59B] .
## Output < 6.00

## Input Please report the recorded pIC50 for "Cc1cc(N(C)C)c2c(n1)sc1c(=O)n(-c3cccc(Br)c3)cnc12" .
## Output 6.82 to 7.30

## Input Please report the recorded pIC50 for "CN(C)c1ccnc2sc3c(=O)n(-c4ccc5ncoc5c4)cnc3c12" .
## Output > 7.30

## Input Please report the recorded pIC50 for O=C(Nc1ccnc2sc3c(=O)n(C4CCCCC4)cnc3c12)c1ccccc1 [73C] .
## Output < 6.00

## Input Please report the recorded pIC50 for "CNc1c([N+](=O)[O-])cnc2sc3c(=O)n(C4CCCCC4)cnc3c12" .
## Output 6.00 to 6.82

## Input Please report the recorded pIC50 for O=c1c2sc3nccc(N4CC[C@H](O)C4)c3c2ncn1C1CCCCC1 [28N] .
## Output < 6.00

## Input Please report the recorded pIC50 for O=c1c2sc3nccc(N4CCN(CC5CC5)CC4)c3c2ncn1C1CCCCC1 [61B] .
## Output < 6.00

## Input Please report the recorded pIC50 for C#CCNc1ccnc2sc3c(=O)n(-c4ccc(C)cc4)cnc3c12 [28Z] .
## Output > 7.30

## Input Please report the recorded pIC50 for CN(C)c1ccnc2sc3c(=O)n(N)c(-c4ccccc4)nc3c12 [65E] .
## Output < 6.00

## Input Please report the recorded pIC50 for COc1ccnc2sc3c(=O)n(-c4ccc5scnc5c4)cnc3c12 [25D] .
## Output 6.00 to 6.82

## Input Please report the recorded pIC50 for O=c1c2sc3nccc(-n4cccn4)c3c2ncn1C1CCCCC1 [30B] .
## Output < 6.00

## Input Please report the recorded pIC50 for "C=CCn1cnc2c(sc3nccc(N(C)C)c32)c1=O" .
## Output 6.00 to 6.82

## Input Please report the recorded pIC50 for "CN(C)c1ccnc2sc3c(=O)n(-c4cccc5nonc45)cnc3c12" .
## Output 6.00 to 6.82

## Input Please report the recorded pIC50 for "CNc1ccnc2sc3c(=O)n(-c4ccc5c(c4)OCO5)cnc3c12" .
## Output > 7.30

## Input Please report the recorded pIC50 for CCNc1ccnc2sc3c(=O)n(-c4ccc(S)c(NC=O)c4)cnc3c12 [131G] .
## Output > 7.30

## Input Please report the recorded pIC50 for C=CCN(C)c1ccnc2sc3c(=O)n(-c4ccc(C)cc4)cnc3c12 [28AC] .
## Output > 7.30

## Input Please report the recorded pIC50 for "CN(C)c1ccnc2sc3c(=O)n(-c4ccc(CC#N)cc4)cnc3c12" .
## Output < 6.00

The reported numbers originate from patent US7989464B2.
